Entry source: ChEMBL document CHEMBL4689842

For each of the compounds below, state its Population Mitochondria Different-Phenotype (%).
tested on: HEK-293T; assay: Multiplex assay against HEK293T; assay type: toxicity, cell-based; conditions: human, 12 h, 1 µM, compound concentration 1 uM, replicate 1
One number for each entry, in %.

Before answering, review these 4 worked examples.
compound	numeric result
Cc1csc2c(N[C@@H](C)CN3CCN(S(=O)(=O)c4ccc(Cl)c(Cl)c4)CC3)ncnc12	96
CN1CCN(c2ccc(OC(F)(F)F)c(Nc3ncc4c(n3)-c3c(c(C(N)=O)nn3CCO)CC4)c2)CC1 [ONVANSERTIB]	83
Cc1[nH]c(/C=C2\C(=O)Nc3ccc(S(=O)(=O)N(C)c4cccc(Cl)c4)cc32)c(C)c1C(=O)N1CCN(C)CC1	93
Cn1cc(-c2[nH]c3cc(NC(=O)[C@H](N)C4CCCCC4)cc4c3c2C=NNC4=O)cn1	71

Give me Population Mitochondria Different-Phenotype (%) for each of these compounds, listed below.
1. NC(=O)Nc1cc(-c2cccc(F)c2)sc1C(=O)N[C@H]1CCCNC1 [AZD-7762]
2. CC[C@H](C)C(=O)O[C@H]1C[C@@H](C)C=C2C=C[C@H](C)[C@H](CC[C@@H]3C[C@@H](O)CC(=O)O3)[C@H]21 [LOVASTATIN]
3. COc1ncc(-c2ccc3nccc(-c4ccnnc4)c3c2)cc1NS(=O)(=O)c1ccc(F)cc1F [OMIPALISIB]

5
68
81

Give me Population Mitochondria Different-Phenotype (%) for each of these compounds, listed below.
1. CC(C)NCC(O)COc1ccc(CCOCC2CC2)cc1.Cl (centres undefined) [BETAXOLOL HYDROCHLORIDE]
2. CNCc1ccc(-c2cc(-c3nc(-c4ccc(S(=O)(=O)C(C)C)cc4)cnc3N)on2)cc1 [BERZOSERTIB]

1. 82
2. 9

###

test system: Fibroblast; assay: Multiplex assay against human fibroblast; type: toxicity, cell-based; conditions: 12 h, 10 µM, compound concentration 10 uM, replicate 2
For each of the compounds below, state its Population Normal (%).
One number for each entry, in %.

Before answering, review these 3 worked examples.
compound	Population Normal (%)
Cc1nc(Nc2n[nH]c3c2CN(C(=O)N[C@H](CN(C)C)c2ccccc2)C3(C)C)c2sccc2n1 [PF-03758309]	60
CCN(CC)CCCCNc1ncc2cc(-c3cc(OC)cc(OC)c3)c(NC(=O)NC(C)(C)C)nc2n1 [PD-173074]	38
Cc1c(-c2ccc(O)cc2)n(Cc2ccc(OCCN3CCCCCC3)cc2)c2ccc(O)cc12 [BAZEDOXIFENE]	97

Let us move to another entry and its Population Normal (%).
Identify measured Population Normal (%) associated with C=CC(=O)Nc1cc2c(Nc3ccc(F)c(Cl)c3)ncnc2cc1OCCCN1CCOCC1.Cl.Cl [CANERTINIB DIHYDROCHLORIDE] 56

###

test system: Fibroblast; test: Multiplex assay against human fibroblast; format: toxicity, cell-based; settings: 48 h, 10 µM, compound concentration 10 uM, replicate 1
test readout: Population Mitotic Cells (%)
One number for each entry, in %.

Give me Population Mitotic Cells (%) for each of these compounds, listed below.
1. COc1cc(-n2cnc3cc(-c4ccc(Cl)cc4)sc3c2=O)ccc1OCCN1CCCC1
2. CN1CCN(c2ccc(OC(F)(F)F)c(Nc3ncc4c(n3)-c3c(c(C(N)=O)nn3CCO)CC4)c2)CC1

6
50

Give me Population Mitotic Cells (%) for each of these compounds, listed below.
1. CNc1nc(NCc2ccc(NS(C)(=O)=O)cc2Cl)cc(-c2ccccn2)n1
2. c1cn2cc(-c3ccc4cn[nH]c4c3)nc(Nc3ccc(N4CCOCC4)cc3)c2n1
3. CC(C)NCC(O)COc1ccc(CCOCC2CC2)cc1.Cl (stereo not drawn) [BETAXOLOL HYDROCHLORIDE]
4. Cc1nc(-c2ccc(-c3ccc(C(=O)N4CCc5cc6c(cc54)C4(CCN(C)CC4)CO6)cc3)c(C)c2)no1
5. CN1CCN(CCOc2cc(OC3CCOCC3)c3c(Nc4c(Cl)ccc5c4OCO5)ncnc3c2)CC1

1. 30
2. 56
3. 23
4. 10
5. 28

Identify measured Population Mitotic Cells (%) associated with C[C@@H](NCCCc1cccc(C(F)(F)F)c1)c1cccc2ccccc12.Cl [CINACALCET HYDROCHLORIDE] 10
